# Tested on: SNB-75
# assay_text: NCI tumour cell line growth inhibition, 48 h
Activity calls are given as the source filed them. No stated cut-off is given here; in the data, active = GI50 up to about 1.1 µM and inactive = higher.
measured_endpoint: GI50

Give its GI50 value. Item: NC(=O)c1ccc([N+](=O)[O-])cc1 > 100 µM (inactive)

###

# Test system: RXF 393
# assay_text: NCI tumour cell line growth inhibition, 48 h
Calls of active or inactive are those of the source. Rule as the data show it: active = GI50 up to about 1.1 µM and inactive = higher.
Select the matching outcome among active, inactive

What did this assay record as the result for COCCN1C2=CCCCC2=Nc2c(N)nc(N)nc21 ? inactive

What did this assay record as the result for CC(=O)C1Cn2c(nc3ccccc32)C[Se]1 (configuration not stated) ? inactive

What did this assay record as the result for CC(=O)Nc1ccc(S(=O)(=O)/N=c2/sc(S(N)(=O)=O)nn2C)cc1 ? inactive

What did this assay record as the result for CCOC(=O)C(OP(=O)(OCC)OCC)C(F)(F)F (configuration not stated) ? inactive

What did this assay record as the result for COc1ccccc1N1C(=O)CS(=O)(=O)C1c1cccc(Oc2ccccc2)c1 (configuration not stated) ? inactive

What did this assay record as the result for Nc1nc(N)c(N=O)c(Nc2ccc(I)cc2)n1 ? inactive

###

# Test system: MOLT-4
# assay_text: NCI tumour cell line growth inhibition, 48 h
Activity calls are given as the source filed them. Rule as the data show it: active = GI50 up to about 1.1 µM and inactive = higher.
Select the matching outcome among active, inactive

Recorded results for 5 compounds are shown here.
# compound, class_name
measured = [
    ("Cc1csc(-n2nc(C)cc2C)n1", "inactive"),
    ("COc1cc2c(c(OC)c1OC)-c1cccc(=O)cc1C(NC(C)=O)CC2 (stereo not drawn)", "active"),
    ("NC(=O)N/N=C\\CC(O)(C(F)(F)Cl)C(F)(F)Cl", "inactive"),
    ("Cc1cccc2c(NCCN(C)C)c3cccc(C(=O)NCCN(C)C)c3nc12", "active"),
    ("NC(=O)c1ccc([N+](=O)[O-])cc1", "inactive"),
]

What did this assay record as the result for CC1=NN(c2nc(N)nc(C/C(N)=N/O)n2)C(C)(C)C1 ? inactive

What did this assay record as the result for CCCCOC(=O)C1CC[C@H]2[C@@H]3CCc4cc(OC(=O)c5cccc6c(=O)c7ccccc7[nH]c56)ccc4[C@H]3CC[C@]12C (stereo partly drawn) ? inactive

What did this assay record as the result for Fc1cc(C2=Nn3c(CNc4ccc(Cl)cc4)nnc3S/C2=C\c2ccc(-c3ccc(Cl)cc3)o2)c(Cl)cc1Cl ? inactive

###

The entries below come with measured GI50 values attached.
# System: UACC-257
# assay_text: NCI tumour cell line growth inhibition, 48 h
Calls of active or inactive are those of the source. No stated cut-off is given here; in the data, active = GI50 up to about 1.1 µM and inactive = higher.

# molecule, GI50
records = [
    ("COC(=O)/C=C/[C@H]1[C@H](C)N1S(=O)(=O)c1ccc(C)cc1 (stereo partly specified)", "> 100 µM (inactive)"),
]

Hello, I am looking for reported GI50 with UACC-257 for O=C1c2ccccc2C2=Nc3ccncc3CN12 . Could you help? > 100 µM (inactive)

Hello, I am looking for reported GI50 with UACC-257 for COc1ccc(N(C(=O)Nc2ccc(Cl)c(Cl)c2)c2ccccc2)cc1 . Could you help? > 10 µM (inactive)

Hello, I am looking for reported GI50 with UACC-257 for Clc1ccc(OCc2nnc(CCCCCCCCc3nnc(COc4ccc(Cl)cc4Cl)o3)o2)c(Cl)c1 . Could you help? > 100 µM (inactive)

Hello, I am looking for reported GI50 with UACC-257 for CC1CCCC(C(=O)/C(=C/c2cccc(Cl)c2)C(=O)C(=O)O)C1 (stereo unspecified) . Could you help? 59.8 µM (inactive)

Hello, I am looking for reported GI50 with UACC-257 for O/N=C1/Nc2ccccc2C(=S)N2CSCC12 (stereo unspecified) . Could you help? > 100 µM (inactive)

###

The entries below come with measured GI50 values attached.
# Tested on: IGROV-1
# assay_text: NCI tumour cell line growth inhibition, 48 h
Calls of active or inactive are those of the source. No stated cut-off is given here; in the data, active = GI50 up to about 1.1 µM and inactive = higher.

# compound, GI50
measured = [
    ("COc1cc2c(cc1OC)C(=O)/C(=C/c1ccc([N+](=O)[O-])cc1)CC2", "> 10 µM (inactive)"),
    ("COC(=O)C1C(O)CCC2CN3CCc4c([nH]c5cccc(OC)c45)C3CC21 (stereo not given)", "> 100 µM (inactive)"),
]

Give its GI50 value. Item: COc1ccc(OC)c(NC(=O)C(=O)NNC(=O)c2sc(NNC(C)=O)nc2C)c1 53.5 µM (inactive)

Give its GI50 value. Item: O=C(Cn1c2ccc(Br)cc2c2nc3ccccc3nc21)NCc1ccccc1 67 µM (inactive)

Give its GI50 value. Item: Cc1cc(S(=O)(=O)Nc2nc3ccccc3c(=O)n2N)c(S)cc1Cl 43.8 µM (inactive)

Give its GI50 value. Item: Cl/C(=N\c1cccc2ccccc12)N(c1ccccc1)c1ccccc1 > 100 µM (inactive)

Give its GI50 value. Item: CNC/C(Cl)=N/S(=O)(=O)c1ccc(C)cc1 17.2 µM (inactive)

Give its GI50 value. Item: CC1=CC2=C(C(N)=O)C(=O)OC2(C)C(c2ccccc2)C1 (stereo not given) > 100 µM (inactive)

Give its GI50 value. Item: CSC[C@H](NC(=O)COc1cccc2cnccc12)C(=O)NC(Cc1ccccc1)C(O)C(=O)N1CSC[C@H]1C(=O)NC(C)(C)C (stereo not given in full) > 100 µM (inactive)

###

# Test system: HCT-116
# assay_text: NCI tumour cell line growth inhibition, 48 h
Activity calls are given as the source filed them. No stated cut-off is given here; in the data, active = GI50 up to about 1.1 µM and inactive = higher.
The entries below come with measured GI50 values attached.

Guide cases for GI50, answers given:
# compound, GI50
data = [
    ("C=CCCCN1C(=O)C2C3c4ccccc4C(C=O)(c4ccccc43)C2C1=O (stereo not drawn)", "3.13 µM (inactive)"),
    ("Fc1cc(C2=Nn3c(CNc4ccc(Cl)cc4)nnc3S/C2=C\\c2ccc(-c3ccc(Cl)cc3)o2)c(Cl)cc1Cl", "63.2 µM (inactive)"),
    ("CCN(CC)CCC(=O)OC1C(C)=CC(C)C(=O)CC(C(C)CC2CCC(O)C(OC)C2)OC(=O)C2CCCCN2C(=O)C(=O)[C@@]2(O)OC(CCC2C)CC(OC)\\C(C)=C/C=C/C=C/C(C)CC(C)C(=O)C1OC (stereo partly drawn)", "5.89 µM (inactive)"),
    ("O=C1CC(c2ccc[nH]2)=NN1c1ccccc1", "> 100 µM (inactive)"),
    ("O=C(O)C(=Cc1ccc(-c2ccccc2)cc1)C(=O)O", "10.4 µM (inactive)"),
    ("C=CCC(C(=O)O)c1ccccc1 (stereo not drawn)", "> 100 µM (inactive)"),
]

Hello, I am looking for reported GI50 with HCT-116 for CCOC(CN(C)C(=O)Nc1cccc2ccccc12)OCC . Could you help? > 10 µM (inactive)

Hello, I am looking for reported GI50 with HCT-116 for CSC[C@H](NC(=O)COc1cccc2cnccc12)C(=O)NC(Cc1ccccc1)C(O)C(=O)N1CSC[C@H]1C(=O)NC(C)(C)C (stereo partly drawn) . Could you help? 23 µM (inactive)

Hello, I am looking for reported GI50 with HCT-116 for Nc1nc(N)c(N=O)c(Nc2ccc(I)cc2)n1 . Could you help? 14.3 µM (inactive)

Hello, I am looking for reported GI50 with HCT-116 for CC(C)CC(N)C(=O)OCN1C(=O)C2C3C=CC(C2C1=O)C1C2C(=O)N(COC(=O)C(N)CC(C)C)C(=O)C2C31 (stereo not drawn) . Could you help? > 43.8 µM (inactive)

Hello, I am looking for reported GI50 with HCT-116 for O=C1c2ccccc2C(=O)c2c(NCCCNCCO)ccc(NCCCNCCO)c21 . Could you help? 4.33 µM (inactive)

Hello, I am looking for reported GI50 with HCT-116 for CCCC(=O)OC(OC(=O)CCC)c1ccc([N+](=O)[O-])o1 . Could you help? 16.9 µM (inactive)

Hello, I am looking for reported GI50 with HCT-116 for NC(=O)N/N=C\CC(O)(C(F)(F)Cl)C(F)(F)Cl . Could you help? > 10 µM (inactive)

###

# Tested on: BT-549
# assay_text: NCI tumour cell line growth inhibition, 48 h
The source made the active and inactive calls. Rule as the data show it: active = GI50 up to about 1.1 µM and inactive = higher.
The entries below come with measured GI50 values attached.

Guide cases for GI50, answers given:
# molecule, GI50
records = [
    ("O=C(CCCCCC(=O)N1CC(CCl)c2ccc([N+](=O)[O-])cc21)N1CC(CCl)c2ccc([N+](=O)[O-])cc21 (centres undefined)", "> 100 µM (inactive)"),
    ("O=C(O)[C@H]1NC[C@@H]2ON=C(Br)[C@@H]21", "> 100 µM (inactive)"),
    ("NC(=O)CC1(O)C=CC(=O)C=C1", "> 100 µM (inactive)"),
]

Give its GI50 value. Item: CC(C)(CN1CCCCC1)C(/C=C/c1ccccc1)=N\NC(=O)N/N=C(/C=C/c1ccccc1)C(C)(C)CN1CCCCC1 1.77 µM (inactive)
